- SYSTEM NAME: human V1a receptor (Homo sapiens, UniProt P37288)
- Construct: expressed in transfected cells; host or cells: HEK293 cells, transiently transfected; cell membranes
- Sequence (P37288 whole entry): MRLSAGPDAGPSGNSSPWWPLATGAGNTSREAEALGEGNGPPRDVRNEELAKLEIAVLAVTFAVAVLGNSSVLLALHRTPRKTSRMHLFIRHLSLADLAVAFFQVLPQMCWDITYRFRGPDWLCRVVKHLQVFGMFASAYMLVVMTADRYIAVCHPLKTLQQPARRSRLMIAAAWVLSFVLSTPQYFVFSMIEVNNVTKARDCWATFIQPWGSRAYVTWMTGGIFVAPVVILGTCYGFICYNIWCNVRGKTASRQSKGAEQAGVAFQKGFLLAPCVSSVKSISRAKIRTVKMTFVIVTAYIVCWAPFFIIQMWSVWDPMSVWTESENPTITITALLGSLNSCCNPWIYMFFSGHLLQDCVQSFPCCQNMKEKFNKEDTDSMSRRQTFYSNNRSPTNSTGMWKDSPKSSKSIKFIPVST
- ASSAY OVERVIEW: human V1a receptor binding study (3H-Vasopressin SPA, HEK293 membranes)
- EXPERIMENTAL SETUP: membranes of HEK293 cells transiently transfected with human V1a receptor, Ki by Cheng-Prusoff, read-out: pKi (hV1a) (converted)
PROPERTY NAME: Ki (nM)
The reply should be a number in nM, with the unit left off.

Here are 3 molecules together with their reported answers.
- MOLECULE: "Clc1ccc(-n2c(Cn3cncn3)nnc2[C@H]2CC[C@H](Oc3ccccn3)CC2)cc1 [Example 9]"
  PROPERTY NAME: "Ki"
  OBSERVED: 7.94
- MOLECULE: "Cc1cc(Cc2nnc([C@H]3CC[C@H](Oc4ccccn4)CC3)n2-c2ccc(Cl)cc2)no1 [Example 1]"
  PROPERTY NAME: "Ki"
  OBSERVED: 0.17
- MOLECULE: "Clc1ccc(-n2c(Cn3ccnn3)nnc2[C@H]2CC[C@H](Oc3ccccn3)CC2)cc1 [Example 7]"
  PROPERTY NAME: "Ki"
  OBSERVED: 3.63

Query string: For the molecule Clc1ccc(-n2c(Cc3ccon3)nnc2[C@H]2CC[C@H](Oc3ccccn3)CC2)cc1 [Example 2] , what Ki is on record?
Result string: 0.229

Query string: For the molecule Clc1ccc(-n2c(Cc3ccno3)nnc2[C@H]2CC[C@H](Oc3ccccn3)CC2)cc1 [Example 3] , what Ki is on record?
Result string: 0.229

Query string: For the molecule Clc1ccc(-n2c(Cn3cnnn3)nnc2[C@H]2CC[C@H](Oc3ccccn3)CC2)cc1 [Example 10] , what Ki is on record?
Result string: 9.12

Query string: For the molecule Clc1ccc(-n2c(Cn3cccn3)nnc2[C@H]2CC[C@H](Oc3ccccn3)CC2)cc1 [Example 4] , what Ki is on record?
Result string: 0.347

Query string: For the molecule Clc1ccc(-n2c(Cn3nccn3)nnc2[C@H]2CC[C@@H](Oc3ccccn3)CC2)cc1 [Example 6] , what Ki is on record?
Result string: 0.871

Query string: For the molecule Clc1ccc(-n2c(Cn3ccnc3)nnc2[C@H]2CC[C@H](Oc3ccccn3)CC2)cc1 [Example 8] , what Ki is on record?
Result string: 3.63

Query string: For the molecule Clc1ccc(-n2c(Cn3nccn3)nnc2[C@H]2CC[C@H](Oc3ccccn3)CC2)cc1 [Example 5] , what Ki is on record?
Result string: 0.151

Numbers sourced from patent US20230150995A1.
